tested on: CAKI-1 renal; assay: NCI tumour cell line growth inhibition, 48 h
experimental.endpoint: TGI

Record summary for `O=c1[nH]c(=O)n(COCCO)c2ccc(Br)cc12` : reported TGI = > 100 µM

Record summary for `COc1ccc2oc(=O)cc(C)c2c1` : reported TGI = > 100 µM

Record summary for COc1ccc(C2=NN(C(=O)COc3ccc(Cl)cc3)C(O)(c3ccc(Cl)cc3)C2)cc1 (stereo not drawn) : reported TGI = > 100 µM

###

test system: SK-MEL-5 melanoma; assay: NCI tumour cell line growth inhibition, 48 h
Would you mind telling me the reported TGI of each entry?

The reported SK-MEL-5 melanoma TGI of CCOC(=O)c1cc(C2CCN(CC(C)CC)C2=S)c(-c2cc(C)no2)[nH]1 (centres undefined) is > 100 µM

The reported SK-MEL-5 melanoma TGI of O=C(Cc1ccccc1)NN1C(=O)C(Cl)C1c1ccc([N+](=O)[O-])cc1 (centres undefined) is > 100 µM

The reported SK-MEL-5 melanoma TGI of CCCCCCCCC(=O)N(C)C1C2CN3CCC(O2)C13 (centres undefined) is > 100 µM

The reported SK-MEL-5 melanoma TGI of COc1cc(/C=C/C(=O)OC2C(O)C3CC(OC(=O)c4cc(OC)c(OC)c(OC)c4)CC2N3C)cc(OC)c1OC (centres undefined) is > 50 µM
